Reported Bliss excess values for the following compounds.
- System: TE-15 (Esophageal Squamous Cell Carcinoma);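 also: after 72 h of two-drug dosing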
- experiment.notes: Bliss excess, mean over the matrix (fraction); higher = more synergy
// keep it numeric: no unit symbol after the value

Guide cases for Bliss excess, answers given:
{"columns": ["compound", "Bliss excess"],
 "data": [
  ["CC1(C)CCC(CN2CCN(c3ccc(C(=O)NS(=O)(=O)c4ccc(NCC5CCOCC5)c([N+](=O)[O-])c4)c(Oc4cnc5[nH]ccc5c4)c3)CC2)=C(c2ccc(Cl)cc2)C1 [Venetoclax] + C=CCn1c(=O)c2cnc(Nc3ccc(N4CCN(C)CC4)cc3)nc2n1-c1cccc(C(C)(C)O)n1 [AZD1775] (first compound max 1 µM, partner max 1 µM)", -0.0737],
  ["NC1(C(=O)N[C@@H](CCO)c2ccc(Cl)cc2)CCN(c2ncnc3[nH]ccc23)CC1 [Capivasertib] + CC(C)n1c(=O)n(C)c2cnc3cc(F)c(-c4ccc(OCCCN5CCCCC5)nc4)cc3c21 [AZD1390] (first compound max 10 µM, 7x7, partner max 0.3 µM)", -0.0774],
  ["Cc1c2c(nn1C)CSCc1cc(n(C)n1)CSc1cc(c3ccccc3c1)OCCCc1c(C(=O)O)n(C)c3c-2c(Cl)ccc13 [AZD5991] + CN(C)CCCOc1ccc(-c2ccc3ncc4c(c3c2)n(C2CCOCC2)c(=O)n4C)cn1 [AZD0156] (first compound max 1 µM, 7x7, partner max 1 µM)", 0.0128]
]}

Please find the next compound below.
Query string: Using the record for CN(CCO)CC[C@H](CSc1ccccc1)Nc1ccc(S(=O)(=O)NC(=O)c2ccc(N3CCC([C@@H](O)c4ccccc4-c4ccc(Cl)cc4)CC3)cc2)cc1S(=O)(=O)C(F)(F)F [AZD4320] + CC(=O)O[C@H]1C(=O)[C@@]2(C)[C@H]([C@H](OC(=O)c3ccccc3)[C@]3(O)C[C@H](OC(=O)[C@H](O)[C@@H](NC(=O)c4ccccc4)c4ccccc4)C(C)=C1C3(C)C)[C@]1(OC(C)=O)CO[C@@H]1C[C@@H]2O [Paclitaxel] (first compound max 1 µM, 7x7, partner max 3 µM) , report its Bliss excess.
Result string: 0.0118
